src = patent US20060239927A1

# assay.text: Changes in concentration in lung tissues and in plasma upon intra-airway (intrabronchial) administration
# Format: in vivo
# condition.parameters: male, rat, lung tissue / plasma, other: intrabronchial, SD rats, 4 mg/kg, read-out: ratio of concentration in lung tissues to concentration in plasma (AUC)
Exercise: for every item that follows, state its recorded Kp.
Respond using a number only.

Lookup result for COc1ccc(C(=O)Nc2c(Cl)cncc2Cl)cc1OC1CCCC1 [RP 73401, reference compound] ; measured Kp: 300

Lookup result for COc1ccc(C(=O)Cc2c(Cl)cncc2Cl)c2c1OC1(CCCC1)O2 [Compound (II)] ; measured Kp: 4970

###

# assay.text: Changes in concentration in lung tissues and in plasma upon intra-airway (intrabronchial) administration
# Format: in vivo
# condition.parameters: male, rat, in vivo, other: intrabronchial, SD rats, 4 mg/kg, read-out: biological half-life (T1/2) (converted)
property.name: half-life
Answer format: value, then unit.

Lookup result for COc1ccc(C(=O)Nc2c(Cl)cncc2Cl)cc1OC1CCCC1 [RP 73401, reference compound] ; measured half-life: 0.341 h

Lookup result for COc1ccc(C(=O)Cc2c(Cl)cncc2Cl)c2c1OC1(CCCC1)O2 [Compound (II)] ; measured half-life: 3.81 h

###

# assay.text: Changes in concentration in lung tissues and in plasma upon intra-airway (intrabronchial) administration
# Assay type: in vivo
# condition.parameters: SD rats, 4 mg/kg, 0.25-4 hours
property.name: AUC in lung tissues (concentration in lung tissues) (µg·h/mL)
# output: bare number, implied unit µg·h/mL

Lookup result for COc1ccc(C(=O)Cc2c(Cl)cncc2Cl)c2c1OC1(CCCC1)O2 [Compound (II)] ; measured AUC in lung tissues (concentration in lung tissues): 3640

Lookup result for COc1ccc(C(=O)Nc2c(Cl)cncc2Cl)cc1OC1CCCC1 [RP 73401, reference compound] ; measured AUC in lung tissues (concentration in lung tissues): 248
